target: Fes (UniProt P07332); test: phosphorylation enrichment, bacterial display (enrichment ratio); higher = better substrate or ligand; peptides without Tyr show the background;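 further: 11-residue human phosphosite peptides and single-mutation variants displayed on the E. coli surface, counted by deep sequencing, each peptide's frequency after selection divided by its frequency in the unselected input library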;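 further: frequency after pTyr selection over input frequency; kinase dosed for 20-30% of maximal phosphorylation in three min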
Sequence (P07332 whole entry, looked up): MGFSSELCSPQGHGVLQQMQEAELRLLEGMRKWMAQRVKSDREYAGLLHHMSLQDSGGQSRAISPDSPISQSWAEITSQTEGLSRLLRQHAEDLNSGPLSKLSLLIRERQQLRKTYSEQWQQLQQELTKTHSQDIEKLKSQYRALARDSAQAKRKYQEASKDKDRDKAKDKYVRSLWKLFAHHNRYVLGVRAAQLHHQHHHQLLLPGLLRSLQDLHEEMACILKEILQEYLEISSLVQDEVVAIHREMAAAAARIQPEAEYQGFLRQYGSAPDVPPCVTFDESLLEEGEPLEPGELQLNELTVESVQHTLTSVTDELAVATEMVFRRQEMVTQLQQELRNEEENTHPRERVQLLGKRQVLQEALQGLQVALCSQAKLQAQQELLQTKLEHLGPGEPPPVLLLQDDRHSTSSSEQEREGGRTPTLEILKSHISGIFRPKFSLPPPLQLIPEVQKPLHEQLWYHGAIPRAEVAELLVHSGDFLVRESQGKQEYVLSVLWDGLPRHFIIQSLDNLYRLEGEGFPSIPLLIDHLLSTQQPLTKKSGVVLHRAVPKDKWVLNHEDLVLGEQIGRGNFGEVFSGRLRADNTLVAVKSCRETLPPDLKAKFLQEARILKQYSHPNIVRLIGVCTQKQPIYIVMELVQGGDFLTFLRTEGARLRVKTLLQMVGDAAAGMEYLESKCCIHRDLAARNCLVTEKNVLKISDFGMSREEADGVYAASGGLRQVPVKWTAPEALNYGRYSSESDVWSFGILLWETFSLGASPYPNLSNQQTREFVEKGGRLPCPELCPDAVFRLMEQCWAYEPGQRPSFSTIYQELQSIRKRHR
Exercise: for every item that follows, state its recorded phosphorylation enrichment.
// print number alone

Per the records, this sequence ( ICANKYMVKSC [RPL10_Y75] ) has phosphorylation enrichment equal to 0.815

// sample SSEYHYVGGFY [CTSC_Y347] , its phosphorylation enrichment was 0.787

Form: sequence = LFLACYFIGGG [UBD_Y161_C162F] ; phosphorylation enrichment = 1.77

Memo: WLFFRYLAIGC [ATP2A2_Y836] , reported phosphorylation enrichment: 1.55

Per the record, AVNDFYAAKKT [CCDC178_Y422] has phosphorylation enrichment of 0.703

Consider TTSQPYRRLCS [USH2A_Y534_C536R] . Its measured phosphorylation enrichment is 0.866

====

Would you kindly list phosphorylation enrichment for each of these sequences?
target: EPHB1 (UniProt P54762); assay: phosphorylation enrichment, bacterial display (enrichment ratio); higher = better substrate or ligand; peptides without Tyr show the background
Sequence (P54762 whole entry, looked up): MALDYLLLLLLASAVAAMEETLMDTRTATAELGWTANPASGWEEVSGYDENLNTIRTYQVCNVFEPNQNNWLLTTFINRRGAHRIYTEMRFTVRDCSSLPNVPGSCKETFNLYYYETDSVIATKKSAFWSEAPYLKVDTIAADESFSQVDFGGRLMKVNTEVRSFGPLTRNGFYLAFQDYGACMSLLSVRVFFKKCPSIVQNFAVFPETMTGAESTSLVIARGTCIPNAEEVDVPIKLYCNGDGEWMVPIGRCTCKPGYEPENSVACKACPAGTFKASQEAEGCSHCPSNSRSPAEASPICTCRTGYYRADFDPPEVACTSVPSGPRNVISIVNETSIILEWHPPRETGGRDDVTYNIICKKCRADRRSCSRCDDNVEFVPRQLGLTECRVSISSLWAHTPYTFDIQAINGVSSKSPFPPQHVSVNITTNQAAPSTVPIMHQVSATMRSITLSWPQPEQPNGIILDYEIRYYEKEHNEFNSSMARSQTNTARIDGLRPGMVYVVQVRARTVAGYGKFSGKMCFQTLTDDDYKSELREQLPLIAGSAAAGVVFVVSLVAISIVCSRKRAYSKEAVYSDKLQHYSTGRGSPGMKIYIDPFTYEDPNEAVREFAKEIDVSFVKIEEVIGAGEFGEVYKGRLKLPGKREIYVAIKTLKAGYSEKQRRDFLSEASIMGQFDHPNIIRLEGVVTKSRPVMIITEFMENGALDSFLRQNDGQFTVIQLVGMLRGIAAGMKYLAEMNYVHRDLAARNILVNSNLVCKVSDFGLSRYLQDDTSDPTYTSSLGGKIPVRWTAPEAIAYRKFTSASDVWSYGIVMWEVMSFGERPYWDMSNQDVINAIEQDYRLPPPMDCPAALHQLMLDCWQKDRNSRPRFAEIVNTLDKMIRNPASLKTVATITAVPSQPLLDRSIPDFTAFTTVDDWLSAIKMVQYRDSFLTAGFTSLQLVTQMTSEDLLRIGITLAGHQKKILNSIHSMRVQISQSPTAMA
A bare number is all that is needed in reply.

Measured phosphorylation enrichment, DAANNYARGHY [TUBA3E_Y103_S101N] : 0.412

# phosphorylation enrichment (sequence: IGMSSYVMLAS [GGCX_Y301_F299S] ) is 0.853

Per the records, this sequence ( EPVSDYINANI [PTPN11_Y304] ) has phosphorylation enrichment equal to 0.433

Record summary for YTFTSYYMHWV [IGHV1-46_Y51] : reported phosphorylation enrichment = 1.84

Lookup result for PSQRCYVYYYS [PTEN_Y174_R173C] ; measured phosphorylation enrichment: 0.931

The sequence identified as TNYPLYLRSLE [MTM1_Y71_R69P] registered its phosphorylation enrichment at 1.01

The sequence listed as TQRPYYKGGGG [TYROBP_Y112] has a reported phosphorylation enrichment of 0.39

phosphorylation enrichment in this record for DPLLTYQFPPK [LMNA_Y481_R482Q] : 0.597

phosphorylation enrichment for FSCLPYRRLAF [SLC52A2_Y305_G306R_YF] is 0.428

Field phosphorylation enrichment (entry SKLTIYDGRPS [MTM1_Y277_A279G] ) reads 0.367

The sequence EKIANYKEGTY [CLRN1_Y171] showed phosphorylation enrichment equal to 0.573

Field phosphorylation enrichment (entry SSMIDYNLLEK [MYOC_Y479_P481L] ) reads 0.455

Per the record, QNTADYYDLYG [PTPN11_Y62_G60A] has phosphorylation enrichment of 12.4

The sequence identified as TTSQPYRRLCS [USH2A_Y534_C536R] registered its phosphorylation enrichment at 0.247

According to the records, this sequence NPIGLYSAETL [LDB3_Y202] displays phosphorylation enrichment of 1.73

Looking up VRRVGYVSGWG [HP_Y280_G276R] , I found its phosphorylation enrichment recorded as 0.422

====

system: AncSZ; assay: phosphorylation enrichment, bacterial display (enrichment ratio); higher = better substrate or ligand; peptides without Tyr show the background
Threshold check on phosphorylation enrichment: at or above 0.9 gives t, strictly below gives f.

## Task Decide: is the reported value of phosphorylation enrichment for KEELAYLKKNH [KRT14_Y248] equal to or greater than 0.9?
## Result f

## Task # check: phosphorylation enrichment of FLQTDDTSQVS [FRMPD1_Y846_Y846D] is greater than or equal to 0.9
## Result t

## Task Tell me whether phosphorylation enrichment is at least 0.9 here: ACEVLYNIAFM [NCF2_Y125]
## Result t

## Task Could you please find out whether GYAGKYIAMVM [CYP19A1_Y441_C437Y] has phosphorylation enrichment that meets 0.9 or exceeds it?
## Result f

## Task API: above_or_equal(metric=phosphorylation enrichment, cutoff=0.9) for item HNGVSYFINLC [IGF2R_Y2024_YF]
## Result t

## Task Quick check: does SNNFIYKTLGV [FAM83B_Y639_YF] have phosphorylation enrichment greater than or equal to 0.9?
## Result f

## Task Hi, just wondering whether DGLASYLDKVR [KRT12_Y139_R135G] shows phosphorylation enrichment of 0.9 or higher.
## Result f

## Task Please check the record AQMAMYFWEMS [TRPM4_Y577_G582S] and state if its phosphorylation enrichment is at or above 0.9.
## Result t

## Task Form field: phosphorylation enrichment at least 0.9? Entry: GTVRDYPDFNP [ANXA3_Y15_S19N]
## Result f

## Task State whether the measured phosphorylation enrichment reaches 0.9, counting equality as reaching it, for TDIVAYSGWVQ [SPTBN2_Y477_R480W]
## Result t

## Task Would you say KYVKMCDNHQL [MYO9A_Y203_Y203C] shows phosphorylation enrichment at minimum 0.9?
## Result f

## Task Is the recorded value of phosphorylation enrichment equal to or greater than 0.9 for this sequence? ESMLRYDVFGG [STOX1_Y607_E608D_YF]
## Result t

## Task Is it the case that QNVADYMRYLM [RPL5_Y207] has phosphorylation enrichment reaching or exceeding 0.9?
## Result t

## Task Hi team, for KSPDSYQKILP [ATM_Y1415_L1420P] , is the recorded phosphorylation enrichment at or above 0.9?
## Result f

## Task // inclusive: phosphorylation enrichment at least 0.9? input: YETVKYINNER [ABCB7_Y345_F346I]
## Result f

## Task Please tell me: is the sequence KLLRLYAVVTR [LYN_Y306_V303L] at or over 0.9 in terms of phosphorylation enrichment?
## Result t

## Task Decide: is the reported value of phosphorylation enrichment for IFKAAYFGVFD [SLC25A4_Y191_R188K_YF] equal to or greater than 0.9?
## Result t
